Overview of reported cleaved RNA product abundance across a group of sequences:
# Test system: Bacillus subtilis
# testProtocol: cleaved RNA product abundance (RNA/gDNA barcode ratio) relative to median wild-type variant (ratio to wild type); higher = more accumulation of the downstream cleavage product
# runParameters: experiment (reporter, strain, medium): exp 8a: truncated aprE reporter, strain BJT201 with 2% xylose (RNase J1 expressed); cleavage site: glnRA (positions -5 to +31 mutated)

sequenceCode	cleaved RNA product abundance
CGACATGTCCCGCTTCTTTCATTAATCCGTTAGCAACTATTATGCTATATACATTTACCTTTTAAGAGGAGGAAT	0.785
CGACATGTCCCGCTTCTTTCATTAATCCGTTAGCAACTTTTTTACTATATACATTTACCTTTTAAGAGGAGGAAT	0.744
CGACATGTCCCGCTTCTTTCATTATTCCGTTAGCAACTGTTTTGCTATAAACATTTACCTTTTAAGAGGAGGAAT	0.851
CGACATGTCCCGCTTCTTTCATTAATCCATTAGCAACTGTTTTGCAATATACATTTACCTTTTAAGAGGAGGAAT	0.408
CGACATGTCCCGCTTCTTTCATTAATCCGTTATCAACTGTTTTGCTATATAGATTTACCTTTTAAGAGGAGGAAT	0.418
CGACATGTCCCGCTTCTTTCATTATACCGTTAGCAACTGTTTTGCTATATACATTTACCTTTTAAGAGGAGGAAT	2.04
CGACATGTCCCGCTTCTTTCATTAATACGTTAGCAACTATTTTGCTATATACATTTACCTTTTAAGAGGAGGAAT	1.33
CGACATGTCCCGCTTCTTTCATTATTCCGTTAGCAACTGCTTTGCTATATACATTTACCTTTTAAGAGGAGGAAT	0.681
CGACATGTCCCGCTTCTTTCATTAATCCGTTAGCAAATGTTTTTCTATATACATTTACCTTTTAAGAGGAGGAAT	0.753
CGACATGTCCCGCTTCTTTCATTAATCCGTTAGCAACTGTTTTTCTATATACAATTACCTTTTAAGAGGAGGAAT	0.846
CGACATGTCCCGCTTCTTTCATTAATCCGTTGGCAACTGTTTTGCTATATACATTTACTTTTTAAGAGGAGGAAT	0.61
CGACATGTCCCGCTTCTTTCATTAATCCGTGAGCAACTGTTTTGCTATATATATTTACCTTTTAAGAGGAGGAAT	0.87
CGACATGTCCCGCTTCTTTCATTATTCCGTTAGCAACTGTTTTGCTATATACATTTAACTTTTAAGAGGAGGAAT	1.71
CGACATGTCCCGCTTCTTTCATTAATCCGTTAGCAACTGTTTTGCTCTATAAATTTACCTTTTAAGAGGAGGAAT	0.384
CGACATGTCCCGCTTCTTTCATTAATCCGTTAGCAAATGTTTTCCTATATACACTTACCTTTTAAGAGGAGGAAT	0.377
CGACATGTCCCGCTTCTTTCATTATTCCGTTAGCAACTGTTTTGCTATATCCATTTACCTTTTAAGAGGAGGAAT	0.359
CGACATGTCCCGCTTCTTTCATTAATCCGTTAGCAACTGTTATGCCATATACATTTACCTTTTAAGAGGAGGAAT	0.232
CGACATGTCCCGCTTCTTTCATTAATCCGTTAGCAACGGTTTTGCCATATACATTTACCTTTTAAGAGGAGGAAT	0.202
CGACATGTCCCGCTTCTTTCATTAATCCATTAGCAACTGTTTTGCTAAATACATTTACCTTTTAAGAGGAGGAAT	0.47
CGACATGTCCCGCTTCTTTCATTAATCCGTTAACAACTGTTTTGATATATACATTTACCTTTTAAGAGGAGGAAT	0.235

---

# Tested on: Bacillus subtilis
# testProtocol: cleaved RNA product abundance (RNA/gDNA barcode ratio) relative to median wild-type variant (ratio to wild type); higher = more accumulation of the downstream cleavage product
# runParameters: experiment (reporter, strain, medium): exp 4a: truncated aprE reporter, strain BJT201 with 2% xylose (RNase J1 expressed); cleavage site: cggR-gapA (positions -7 to +36 mutated)

sequenceCode	cleaved RNA product abundance
ACAGACGAAGGAGCCGCAAAGAAGTTATTAAGGGATGGATAATACCTCAATATAAATATCTCTCACTTATTTAAA	0.103
ACAGACGAAGGAGCCGCAAAGAAGTTATTAAGGGAGGAATAAACCCTCAATATAAATATCTCTCACTTATTTAAA	0.382
ACAGACGAAGGAGCCGCAAAGAAGTTATTAAGCGATGAATAATCCCTCCATATAAATATCTCTCACTTATTTAAA	0.0952
ACAGACGAAGGAGCCGCAAAGAAGTTTTTAAGGGATGAATAATGCCTCAATATAAATATCTCTCACTTATTTAAA	0.17
ACAGACGAAGGAGCCGCAAAGAAGTTATTAAGAGATGAATAATCCCTTAATATAAATATCTCTCACTTATTTAAA	0.431
ACAGACGAAGGAGCCGCAAAGAAGTTATAAAGGGATGAATAATCACTCAATATAAATATCTCTCACTTATTTAAA	0.169
ACAGACGAAGGAGCCGCAATGAAGTTATTAAGGGATGAATGATCCCTCAATATAAATATCTCTCACTTATTTAAA	0.506
ACAGACGAAGGAGCCGCAAAGAAGTTATTAAGGTATGATTAATCCCTCAATATAAATATCTCTCACTTATTTAAA	0.153

---

# Tested on: Bacillus subtilis
# testProtocol: cleaved RNA product abundance (RNA/gDNA barcode ratio) relative to median wild-type variant (ratio to wild type); higher = more accumulation of the downstream cleavage product
# runParameters: experiment (reporter, strain, medium): exp 2b: truncated aprE reporter, strain BJT200; cleavage site: cggR-gapA (positions -7 to +36 mutated)
cleaved RNA product abundance by entry:

sequenceCode	cleaved RNA product abundance
ACAGACGAAGGAGCCGCAAAGAAGTTATTAAAGGATGAATAATCCCTCACTATAAATATCTCTCACTTATTTAAA	0.113
ACAGACGAAGGAGCCGCAAAGAAGTTATTAAAGGATGAATAATTCCTCAATATAAATATCTCTCACTTATTTAAA	0.0999
ACAGACGAAGGAGCCGCAACGAAATTATTAAGGGATGAATAATCCCTCAATATAAATATCTCTCACTTATTTAAA	1.1
ACAGACGAAGGAGCCGCAAAGAAGTTATTAAGGGATGAATATTTCCTCAATATAAATATCTCTCACTTATTTAAA	0.188

---

# Test system: Bacillus subtilis
# testProtocol: cleaved RNA product abundance (RNA/gDNA barcode ratio) relative to median wild-type variant (ratio to wild type); higher = more accumulation of the downstream cleavage product
# runParameters: experiment (reporter, strain, medium): exp 8a: truncated aprE reporter, strain BJT201 with 2% xylose (RNase J1 expressed); cleavage site: glnRA (positions -5 to +31 mutated)

sequenceCode	targetOrTestSystem	cleaved RNA product abundance
CGACATGTCCCGCTTCTTTCATTAAACCGTGAACAACTGTGTTGCAATATACATGTACCTTTTAAGAGGAGGAAT	Bacillus subtilis	0.222
CGACATGTCCCGCTTCTTTCATTATTCCGTTACCAACTGTTTTGCTATATACATTTACCTTTTAAGAGGAGGAAT	Bacillus subtilis	0.289
CGACATGTCCCGCTTCTTTCATTAATCCGTTAGCAACTATTTTGCTATAAACATTTACCTTTTAAGAGGAGGAAT	Bacillus subtilis	1
CGACATGTCCCGCTTCTTTCATTAATCCGTTAGCAACTGTTTAGCTATATACATTTATCTTTTAAGAGGAGGAAT	Bacillus subtilis	0.572

---

# Test system: Bacillus subtilis
# testProtocol: cleaved RNA product abundance (RNA/gDNA barcode ratio) relative to median wild-type variant (ratio to wild type); higher = more accumulation of the downstream cleavage product
# runParameters: experiment (reporter, strain, medium): exp 4a: truncated aprE reporter, strain BJT201 with 2% xylose (RNase J1 expressed); cleavage site: cggR-gapA (positions -7 to +36 mutated)
Parameter class (string): assigned from measured cleaved RNA product abundance. Ranges: lower band (below 0.2), central band (0.2 to below 0.5), upper band (0.5 or more)

sequenceCode	targetOrTestSystem	label
ACAGACGAAGGAGCCGCAAAGAAGAAATTAAGGGATGAATAATCCCTCAATATAAATATCTCTCACTTATTTAAA	Bacillus subtilis	lower band
ACAGACGAAGGAGCCGCAAAGAAGTTATTAAGTGATGAATAATCTCTCAATATAAATATCTCTCACTTATTTAAA	Bacillus subtilis	lower band
ACAGACGAAGGAGCCGCATAGAAGTTATTTAGGGATGAATAATCCCTCAATATAAATATCTCTCACTTATTTAAA	Bacillus subtilis	upper band
ACAGACGAAGGAGCCGCAAAGACGTTATTAAGGGATGAATAATCCCTCAATATAGATATCTCTCACTTATTTAAA	Bacillus subtilis	central band
ACAGACGAAGGAGCCGCAAAGAAGTTATTAAGGGATAAATAATCCCTCAATATAGATATCTCTCACTTATTTAAA	Bacillus subtilis	upper band
ACAGACGAAGGAGCCGCAAAAAAATTATAAAGGGATGAATAATCCCTCAATATAAATATCTCTCACTTATTTAAA	Bacillus subtilis	central band
ACAGACGAAGGAGCCGCAAAGAAGATAGTAAGGGATGAATAATCCCTCAATATAAATATCTCTCACTTATTTAAA	Bacillus subtilis	central band
ACAGACGAAGGAGCCGCAAAGATGTTAATAAGGGATGAATAATCCCTCAATATAAATATCTCTCACTTATTTAAA	Bacillus subtilis	central band
ACAGACGAAGGAGCCGCAAAGAAGTTTTTAAGGGATGAATAATCCCTCACTATAAATATCTCTCACTTATTTAAA	Bacillus subtilis	central band
ACAGACGAAGGAGCCGCAAAGAAGTTATTAAGGGATGAATTATCCCTCAATATAAAAATCTCTCACTTATTTAAA	Bacillus subtilis	upper band
ACAGACGAAGGAGCCGCAAAGAACTTATTTAGGGATGAATAATCCCTCAATATAAATATCTCTCACTTATTTAAA	Bacillus subtilis	central band
ACAGACGAAGGAGCCGCAAAGAAGTTATTAAAGAATGAATAATACCTCAATATAAATATCTCTCACTTATTTAAA	Bacillus subtilis	lower band
ACAGACGAAGGAGCCGCAAAGAAGTTATTAAGGGATGAATAAACCCTCAATATAAATATCTCTCACTTATTTAAA	Bacillus subtilis	upper band
ACAGACGAAGGAGCCGCAAAGAAGTTATTAGGGCATGAATAATCCCTCAATATAAATATCTCTCACTTATTTAAA	Bacillus subtilis	lower band
ACAGACGAAGGAGCCGCAAAGACGTTATTAAGGAATGAATAATCCCTCAATATAAATATCTCTCACTTATTTAAA	Bacillus subtilis	lower band
ACAGACGAAGGAGCCGCAAAGAAGTTATTAAGGGATAAATAATGCCTCAATATAAATATCTCTCACTTATTTAAA	Bacillus subtilis	lower band
ACAGACGAAGGAGCCGCAAAGAAGTTATTAAGGGAAGCATAATCCCTCAATATAAATATCTCTCACTTATTTAAA	Bacillus subtilis	upper band
